All values here come from patent US20250270324A1.

Biological target: T1, human PD-L1-rCD4-His (human)
T1 construct: Human PD-L1 fused to the monomeric C-terminal rat CD4 domains 3 and 4 tag and His tag; made in HEK293; The entry as printed begins with the signal peptide (MRIF...); also called hPD-L1-rCD4-His; hu-PD-L1-rCD4-His
T1 sequence (chain, as listed by the source limits assumed): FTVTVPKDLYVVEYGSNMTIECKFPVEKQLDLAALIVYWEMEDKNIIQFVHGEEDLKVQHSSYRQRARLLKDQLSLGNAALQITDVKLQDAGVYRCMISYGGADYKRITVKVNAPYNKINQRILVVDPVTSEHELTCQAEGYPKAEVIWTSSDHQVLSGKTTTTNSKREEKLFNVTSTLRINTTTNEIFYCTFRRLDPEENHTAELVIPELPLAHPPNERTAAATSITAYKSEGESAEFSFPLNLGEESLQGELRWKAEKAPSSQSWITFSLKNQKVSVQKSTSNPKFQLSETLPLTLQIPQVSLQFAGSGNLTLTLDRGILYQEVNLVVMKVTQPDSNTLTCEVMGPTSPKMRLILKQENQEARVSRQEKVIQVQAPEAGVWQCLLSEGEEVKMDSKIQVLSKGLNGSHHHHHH
Test: SPR, IgG1 from culture supernatant
Each record here notes measured pKd.
# reply with the number alone; pKd is -log10 of concentration in mol/L

Answered cases to consult:
{"columns": ["binder", "pKd"],
 "data": [
  ["G1/887_04_G12 (antibody, human IgG1, V domains shown, IgG1 without LALA, kappa light chain) VH: EVQLVQSGAEVKRPGASVKVSCKASGYTFTSYGISWVRQAPGQGLEWMGWISAYNSNTNYAQKLQGRVTMTTDTSTSTAYMELRSLRSDDTAVYYCARDLFPTIFGVSYYYYWGQGTLVTVSS VL: DIQMTQSPSTLSASVGDRVTITCRASQSISGRLAWYQQKPGKAPNLLIYEASNLESGVPSRFSGSGSGTEFTLTISSLQPEDFATYYCQQSYSWPRTFGQGTKVEIKR", 9.44],
  ["G1/894_08_E05 (antibody, human IgG1, V domains shown, IgG1 without LALA, kappa light chain; also called G1/894_8_E05) VH: EVQLVQSGAEVKRPGASVKVSCKASGYTFTSYGISWVRQAPGQGLEWMGWISAYNSNTNYAQKLQGRVTMTTDTSTSTAYMELRSLRSDDTAVYYCARDLFPTIFGVSYYYYWGQGTLVTVSS VL: DIQMTQSPSTLSASVGDRVTITCRASQSISGRLAWYQQKPGKAPNLLIYEASNLESGVPSRFSGSGSGTEFTLTISSLQPEDFATYYCQQSYSTPRVTFGQGTKVEIKR", 9.32],
  ["G1/894_08_A05 (antibody, human IgG1, V domains shown, IgG1 without LALA, kappa light chain) VH: EVQLVQSGAEVKRPGASVKVSCKASGYTFTSYGISWVRQAPGQGLEWMGWISAYNSNTNYAQKLQGRVTMTTDTSTSTAYMELRSLRSDDTAVYYCARDLFPTIFGVSYYYYWGQGTLVTVSS VL: DIQMTQSPSTLSASVGDRVTITCRASQSISGRLAWYQQKPGKAPNLLIYEASNLESGVPSRFSGSGSGTEFTLTINSLQPDDFATYYCQQANTFPRVSFGGGTKVEIKR", 9.38]
]}

query: Item under review: G1/929_01_A09 (antibody, human IgG1, V domains shown, IgG1; SGNA variant of G1/894_08_E05) VH: EVQLVQSGAEVKRPGASVKVSCKASGYTFTSYGISWVRQAPGQGLEWMGWISAYSGNANYAQKLQGRVTMTTDTSTSTAYMELRSLRSDDTAVYYCARDLFPTIFGVSYYYYWGQGTLVTVSS VL: DIQMTQSPSTLSASVGDRVTITCRASQSISGRLAWYQQKPGKAPNLLIYEASNLESGVPSRFSGSGSGTEFTLTISSLQPEDFATYYCQQSYSTPRVTFGQGTKVEIKR . Reported pKd?
result: 9.31

query: Item under review: G1/929_01_A07 (antibody, human IgG1, V domains shown, IgG1; GGST variant of G1/894_08_E05) VH: EVQLVQSGAEVKRPGASVKVSCKASGYTFTSYGISWVRQAPGQGLEWMGWISAYGGSTNYAQKLQGRVTMTTDTSTSTAYMELRSLRSDDTAVYYCARDLFPTIFGVSYYYYWGQGTLVTVSS VL: DIQMTQSPSTLSASVGDRVTITCRASQSISGRLAWYQQKPGKAPNLLIYEASNLESGVPSRFSGSGSGTEFTLTISSLQPEDFATYYCQQSYSTPRVTFGQGTKVEIKR . Reported pKd?
result: 9.33
